Here, each record is paired with measured inhibition data.
test: M. tuberculosis H37Rv growth inhibitors, H37Rv strain (AID 1626); settings: active compounds read high, concentration not given here;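 note: bacteria incubated seven days before Alamar blue readout; 0% = bacteria only wells and 100% = bacteria with antibiotic wells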
The whole screen tested about 220,000 compounds, of which about 2,000 (0.91%) were called active. Another 2% or so got no clear call; they are omitted. The list is a sample of the results. Measured potencies and affinities stand elsewhere.

Example entries begin here.
# molecule, inhibition
data = [
    ("COc1ccc(C(=O)Nc2ccccc2Cc2ccccc2)c(OC)c1", "12.6% (inactive)"),
    ("CCCC(=O)Nc1nnc(-c2ccc3c(c2)OCCO3)o1", "57.4% (inactive)"),
    ("O=C(Nc1ccc(F)cc1)c1ccc(S(=O)(=O)N2CCOCC2)o1", "-14.1% (inactive)"),
    ("Cc1ccc(-n2c(C(C)n3nc(C)c([N+](=O)[O-])c3C)n[nH]c2=S)cc1 (configuration not stated)", "3.01% (inactive)"),
    ("COC(=O)c1[nH]c2cccc(OC)c2c1NC(=O)CCN1CCC(C(N)=O)CC1", "-3.72% (inactive)"),
]

Task: Please give the documented inhibition of CCc1nnc(NC(=O)c2ccc(OC)cc2)s1
Result: 2.91% (inactive)

Task: Please give the documented inhibition of O=c1oc2cc([N+](=O)[O-])ccc2nc1/C=C(\O)c1cccc(Br)c1
Result: -3.89% (inactive)

----------
experiment: M. tuberculosis H37Rv growth inhibitors, H37Rv strain (AID 1626); conditions: active compounds read high, concentration not given here;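 note: bacteria incubated seven days before Alamar blue readout; 0% = bacteria only wells and 100% = bacteria with antibiotic wells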
Hit rate of the full screen: of about 220,000 compounds, about 2,000 (0.91%) were called active. Not shown: some 2% with an inconclusive outcome. The list is a sample of the results. Potency and affinity values are given separately.
Here, each record is paired with measured inhibition data.
API: value field is a number in %; no unit string.

# molecule, reported_metric, numeric_result
records = [
    ("CC(=O)c1cccc(OCC(=O)c2cc(C)n(-c3cc(C)on3)c2C)c1", "inhibition", 17.2),
    ("N=c1c2c(ncn1Cc1ccco1)Oc1ccc3ccccc3c1C2c1ccccc1 (stereo not drawn)", "inhibition", 20.9),
    ("O=S1(=O)CCC(=Nc2ccc(Cl)cc2)c2ccsc21", "inhibition", 3.58),
    ("COc1ccccc1-c1nnc(SCC(=O)N2CCOCC2)n1-c1ccccc1", "inhibition", 1.2),
    ("Cc1cc(C)c(C(=O)/C=C/c2ccc3c(c2)OCO3)c(=O)[nH]1", "inhibition", -2.72),
]

Task: Please give the documented inhibition of CC1(C)Cc2c(cnn2-c2ccccc2)-c2c1c1ccccc1n2CC(O)CCl (stereo not drawn)
Result: 2.97

Task: Please give the documented inhibition of CCOC(=O)c1ccc(NC(=S)NCc2cccnc2)cc1
Result: -9.64

Task: Please give the documented inhibition of Cc1ccc(NCCNc2ccc(C)cc2)cc1
Result: 5.4

Task: Please give the documented inhibition of CCCCOC(=O)c1ccc(NC(=O)c2c(OC)cccc2OC)cc1
Result: -7.36

Task: Please give the documented inhibition of Cc1nnc(SCC(=O)N/N=C/c2cc(Cl)c(O)c(Cl)c2)s1
Result: -3.34

----------
Here, each record is paired with measured inhibition data.
experiment: M. tuberculosis H37Rv growth inhibitors, H37Rv strain (AID 1626); settings: active compounds read high, concentration not given here;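 note: bacteria incubated seven days before Alamar blue readout; 0% = bacteria only wells and 100% = bacteria with antibiotic wells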
Hit rate of the full screen: of about 220,000 compounds, about 2,000 (0.91%) were called active. Not shown: some 2% with an inconclusive outcome. Only a sample is shown. Results with a measured potency or affinity are listed apart.
API: value field is a number in %; no unit string.

Example entries begin here.
# compound, scale_unit, inhibition
measured = [
    ("Cc1nc2nc(SCC(=O)C(C)(C)C)[nH]c2cc1Br", "%", -3.7),
    ("O=C(N/N=C1\\C(=O)c2cccc3cccc1c23)c1ccc(O)cc1", "%", 20.7),
    ("O=C(O)c1cc(-c2ccccc2)nc2ccccc12", "%", -5.49),
    ("CC(=O)c1ccc(C(=O)N2CCC(CO)(Cc3cccc(C(F)(F)F)c3)CC2)cc1", "%", -0.21),
    ("CCCCN1CC[C@H]2C=CC[C@@H](C(=O)Nc3ccccc3)[C@H]2C1=O", "%", -7.03),
]

Task: Please give the documented inhibition of Cc1nc(-c2nc(-c3c(C(=O)NNC(=O)Nc4ccccc4)noc3C)cs2)cs1
Result: 1.03

// data source = PubChem BioAssay AID1626
